- Tested on: Stenotrophomonas maltophilia
- assay explanation: MIC and MBC determination (CLSI, alamar blue), CF isolates
- assay context: Stenotrophomonas
Attribute: MIC 50

NC[C@H]1O[C@H](O[C@H]2[C@H](O)[C@@H](O[C@H]3O[C@H](CO)[C@@H](O)[C@H](N)[C@H]3O)[C@H](N)C[C@@H]2N)[C@H](N)C[C@@H]1O [Tobramycin]    >32 µg/mL
C[C@H]1COc2c(N3CCN(C)CC3)c(F)cc3c(=O)c(C(=O)O)cn1c23 [Levofloxacin]    2 µg/mL
CO[C@@]1(NC(=O)Cc2cccs2)C(=O)N2C(C(=O)O)=C(COC(N)=O)CS[C@@H]21 [Cefoxitin]    >256 µg/mL
CO/N=C(\C(=O)N[C@@H]1C(=O)N2C(C(=O)[O-])=C(C[N+]3(C)CCCC3)CS[C@H]12)c1csc(N)n1 [Cefepime]    >32 µg/mL
C[C@@H](O)[C@H]1C(=O)N2C(C(=O)O)=C(SCCN=CN)C[C@H]12 [Imipenem]    >32 µg/mL

# value of MIC 50, Stenotrophomonas maltophilia, item CC(C)(O/N=C(\C(=O)N[C@@H]1C(=O)N2C(C(=O)[O-])=C(C[n+]3ccccc3)CS[C@H]12)c1csc(N)n1)C(=O)O [Ceftazidime] = >32 µg/mL

----------
- Tested on: Stenotrophomonas maltophilia
- assay explanation: MIC and MBC determination (CLSI, alamar blue), CF isolates
- assay context: Stenotrophomonas
Attribute: MIC 90

Recorded MIC 90, per entry:
CC(C)(O/N=C(\C(=O)N[C@@H]1C(=O)N2C(C(=O)[O-])=C(C[n+]3ccccc3)CS[C@H]12)c1csc(N)n1)C(=O)O    >32 µg/mL
C[C@H]1COc2c(N3CCN(C)CC3)c(F)cc3c(=O)c(C(=O)O)cn1c23    8 µg/mL
CO[C@@]1(NC(=O)Cc2cccs2)C(=O)N2C(C(=O)O)=C(COC(N)=O)CS[C@@H]21    >256 µg/mL

Reported MIC 90 of NC[C@H]1O[C@H](O[C@H]2[C@H](O)[C@@H](O[C@H]3O[C@H](CO)[C@@H](O)[C@H](N)[C@H]3O)[C@H](N)C[C@@H]2N)[C@H](N)C[C@@H]1O : >32 µg/mL

Reported MIC 90 of CO/N=C(\C(=O)N[C@@H]1C(=O)N2C(C(=O)[O-])=C(C[N+]3(C)CCCC3)CS[C@H]12)c1csc(N)n1 [Cefepime] : >32 µg/mL

----------
- Tested on: Burkholderia cenocepacia
- assay explanation: MIC and MBC determination (CLSI, alamar blue), CF isolates
- assay context: Burkholderia cenocepacia
Attribute: MIC 90
# output: bare number, implied unit µg/mL

CC(C)(O/N=C(\C(=O)N[C@@H]1C(=O)N2C(C(=O)[O-])=C(C[n+]3ccccc3)CS[C@H]12)c1csc(N)n1)C(=O)O    16

Could you now consider this next compound?
Reported MIC 90 of C[C@H]1COc2c(N3CCN(C)CC3)c(F)cc3c(=O)c(C(=O)O)cn1c23 : 8

Cited source for all entries: patent US20160158179A1
